The origin of these recorded values is ChEMBL document CHEMBL4368943.

# target entity: von Hippel-Lindau disease tumor suppressor/Estrogen receptor/Cullin-2 (Homo sapiens, UniProt P03372+P40337+Q13617)
# Sequence (P03372 whole entry, looked up): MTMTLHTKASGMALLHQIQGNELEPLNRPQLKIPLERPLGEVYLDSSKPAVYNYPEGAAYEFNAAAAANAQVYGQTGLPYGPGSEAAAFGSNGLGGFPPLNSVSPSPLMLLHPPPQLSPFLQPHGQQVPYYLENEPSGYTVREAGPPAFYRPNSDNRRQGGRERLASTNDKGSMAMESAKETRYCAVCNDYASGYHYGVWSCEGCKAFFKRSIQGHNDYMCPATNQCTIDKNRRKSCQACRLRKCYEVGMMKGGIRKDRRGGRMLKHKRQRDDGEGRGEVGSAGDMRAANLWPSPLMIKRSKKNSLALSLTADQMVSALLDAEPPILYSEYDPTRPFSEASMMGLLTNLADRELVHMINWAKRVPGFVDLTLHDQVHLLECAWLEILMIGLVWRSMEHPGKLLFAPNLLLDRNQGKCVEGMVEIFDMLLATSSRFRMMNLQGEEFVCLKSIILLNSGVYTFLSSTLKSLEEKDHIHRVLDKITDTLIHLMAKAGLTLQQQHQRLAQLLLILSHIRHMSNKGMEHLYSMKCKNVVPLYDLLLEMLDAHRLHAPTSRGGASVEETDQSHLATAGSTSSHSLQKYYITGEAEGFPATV
# Sequence (P40337 whole entry, looked up): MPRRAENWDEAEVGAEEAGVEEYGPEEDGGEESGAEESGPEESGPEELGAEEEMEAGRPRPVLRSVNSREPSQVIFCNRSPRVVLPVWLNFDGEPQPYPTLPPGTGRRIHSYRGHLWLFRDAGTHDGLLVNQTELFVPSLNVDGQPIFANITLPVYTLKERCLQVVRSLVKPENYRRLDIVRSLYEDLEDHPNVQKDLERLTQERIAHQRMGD
# Sequence (Q13617 whole entry, looked up): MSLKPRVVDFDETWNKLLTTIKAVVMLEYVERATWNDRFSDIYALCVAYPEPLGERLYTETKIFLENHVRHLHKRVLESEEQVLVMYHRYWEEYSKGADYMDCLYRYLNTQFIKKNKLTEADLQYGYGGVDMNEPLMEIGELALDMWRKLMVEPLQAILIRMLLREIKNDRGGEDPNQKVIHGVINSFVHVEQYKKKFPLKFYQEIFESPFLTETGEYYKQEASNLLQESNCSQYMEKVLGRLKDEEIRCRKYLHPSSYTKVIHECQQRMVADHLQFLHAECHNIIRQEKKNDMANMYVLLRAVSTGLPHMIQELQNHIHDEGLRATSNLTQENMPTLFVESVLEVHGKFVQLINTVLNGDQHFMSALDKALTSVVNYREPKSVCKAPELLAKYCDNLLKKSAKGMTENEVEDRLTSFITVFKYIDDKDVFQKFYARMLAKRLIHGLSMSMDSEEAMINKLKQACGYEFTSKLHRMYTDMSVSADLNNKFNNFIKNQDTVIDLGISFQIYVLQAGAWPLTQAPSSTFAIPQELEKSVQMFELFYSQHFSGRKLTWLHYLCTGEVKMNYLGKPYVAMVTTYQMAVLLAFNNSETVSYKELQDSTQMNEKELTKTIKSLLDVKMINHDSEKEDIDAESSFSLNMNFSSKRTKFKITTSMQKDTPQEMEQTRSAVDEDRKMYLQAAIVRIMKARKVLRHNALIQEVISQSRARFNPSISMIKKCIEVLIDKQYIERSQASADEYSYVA
# method summary: Protac activity against VHL/cullin2/ERalpha in human MCF7 cells assessed as ERalpha degradation by measuring ER protein/GADPH ratio at 100 nM after 4 hrs by Western blot analysis relative to control
# Format: cell-based
Simple rule here: Ratio less than 60 is met, otherwise not met.

# structure notation, label value
records = [
    ("CCN(CCCCCCCC(=O)N[C@H](C(=O)N1C[C@H](O)C[C@H]1C(=O)N[C@@H](C)c1ccc(Cl)cc1)C(C)(C)C)CCOc1ccc(C(=O)c2c(-c3ccc(O)cc3)sc3cc(O)ccc23)cc1", "not met"),
    ("C#Cc1ccc([C@H](C)NC(=O)[C@@H]2C[C@@H](O)CN2C(=O)[C@@H](NC(=O)CCCCCCCN(CC)CCOc2ccc(C(=O)c3c(-c4ccc(O)cc4)sc4cc(O)ccc34)cc2)C(C)(C)C)cc1", "met"),
    ("CCN(CCCCCCCC(=O)N[C@H](C(=O)N1C[C@H](O)C[C@H]1C(=O)N[C@@H](C)c1ccc(-c2scnc2C)cc1)C(C)(C)C)CCOc1ccc([C@@H]2c3ccc(O)cc3CC[C@@H]2c2ccccc2)cc1", "met"),
    ("CCN(CCCCCCCC(=O)N[C@H](C(=O)N1C[C@H](O)C[C@H]1C(=O)NCc1ccc(-c2scnc2C)cc1)C(C)(C)C)CCOc1ccc(C(=O)c2c(-c3ccc(O)cc3)sc3cc(O)ccc23)cc1", "not met"),
    ("CCN(CCCCC(=O)N[C@H](C(=O)N1C[C@H](O)C[C@H]1C(=O)N[C@@H](C)c1ccc(-c2scnc2C)cc1)C(C)(C)C)CCOc1ccc(C(=O)c2c(-c3ccc(O)cc3)sc3cc(O)ccc23)cc1", "not met"),
    ("CCN(CCCCc1cnn(CC(=O)N[C@H](C(=O)N2C[C@H](O)C[C@H]2C(=O)N[C@@H](C)c2ccc(-c3scnc3C)cc2)C(C)(C)C)c1)CCOc1ccc(C(=O)c2c(-c3ccc(O)cc3)sc3cc(O)ccc23)cc1", "met"),
    ("CCN(CCCCCCCCCC(=O)N[C@H](C(=O)N1C[C@H](O)C[C@H]1C(=O)N[C@@H](C)c1ccc(-c2scnc2C)cc1)C(C)(C)C)CCOc1ccc(C(=O)c2c(-c3ccc(O)cc3)sc3cc(O)ccc23)cc1", "met"),
    ("CCN(CCC#Cc1cnn(CC(=O)N[C@H](C(=O)N2C[C@H](O)C[C@H]2C(=O)N[C@@H](C)c2ccc(-c3scnc3C)cc2)C(C)(C)C)c1)CCOc1ccc(C(=O)c2c(-c3ccc(O)cc3)sc3cc(O)ccc23)cc1", "met"),
    ("CCN(CCCCCCCC(=O)N[C@H](C(=O)N1C[C@H](O)C[C@H]1C(=O)N[C@@H](C)c1ccc(C(C)C)cc1)C(C)(C)C)CCOc1ccc(C(=O)c2c(-c3ccc(O)cc3)sc3cc(O)ccc23)cc1", "not met"),
    ("Cc1ncsc1-c1ccc([C@H](C)NC(=O)[C@@H]2C[C@@H](O)CN2C(=O)[C@@H](NC(=O)CCCCCCCN(CCOc2ccc(C(=O)c3c(-c4ccc(O)cc4)sc4cc(O)ccc34)cc2)C2CCC2)C(C)(C)C)cc1", "met"),
    ("Cc1ncsc1-c1ccc([C@H](C)NC(=O)[C@@H]2C[C@@H](O)CN2C(=O)[C@@H](NC(=O)CCCCCCCN(CCOc2ccc(C(=O)c3c(-c4ccc(O)cc4)sc4cc(O)ccc34)cc2)C(C)(C)C)C(C)(C)C)cc1", "met"),
    ("Cc1ncsc1-c1ccc([C@H](C)NC(=O)[C@@H]2C[C@@H](O)CN2C(=O)[C@@H](NC(=O)CCCCCCCN(CCOc2ccc(C(=O)c3c(-c4ccc(O)cc4)sc4cc(O)ccc34)cc2)CC2CCC2)C(C)(C)C)cc1", "met"),
]
